Test: Lipophilicity: distribution coefficient between 1-octanol and PBS pH 7.4
Format: physicochemical
Conditions: 1-octanol/PBS
quantity measured: logD at 2 h

- N=C(N)NCc1cccc(I)c1 [^123I-MIBG, meta-iodobenzylguanidine]: 0.42

###

Target: hNET (Homo sapiens)
Assay: Competitive inhibition of ^123I-MIBG binding/uptake in C6-hNET cells
Type: cell-based
pIC50: −log10 of the molar value.
quantity measured: pIC50

* N=C(N)NCc1cccc(I)c1 [^123I-MIBG, meta-iodobenzylguanidine] | 5.77

###

Target: hNET (Homo sapiens, UniProt P23975)
Sequence (P23975 whole entry): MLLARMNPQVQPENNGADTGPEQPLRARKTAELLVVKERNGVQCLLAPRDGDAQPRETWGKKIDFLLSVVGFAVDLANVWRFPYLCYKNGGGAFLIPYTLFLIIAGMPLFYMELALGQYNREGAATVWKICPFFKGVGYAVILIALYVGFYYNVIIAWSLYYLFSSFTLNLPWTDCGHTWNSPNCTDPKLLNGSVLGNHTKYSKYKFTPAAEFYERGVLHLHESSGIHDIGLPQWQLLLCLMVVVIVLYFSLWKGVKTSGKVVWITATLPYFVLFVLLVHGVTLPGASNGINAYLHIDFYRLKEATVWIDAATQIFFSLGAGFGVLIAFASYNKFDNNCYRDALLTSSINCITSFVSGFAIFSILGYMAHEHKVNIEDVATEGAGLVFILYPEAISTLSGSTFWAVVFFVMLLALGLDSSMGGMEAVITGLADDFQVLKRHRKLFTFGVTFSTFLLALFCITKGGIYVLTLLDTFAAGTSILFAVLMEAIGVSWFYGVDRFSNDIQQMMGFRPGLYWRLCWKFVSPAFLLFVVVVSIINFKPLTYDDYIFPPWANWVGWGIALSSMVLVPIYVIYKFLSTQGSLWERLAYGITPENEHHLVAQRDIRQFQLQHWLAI
Experiment: Competitive inhibition of ^123I-MIBG binding/uptake in C6-hNET cells
Format: cell-based
Conditions: C6-hNET cells, ^123I-MIBG as radioligand, 37 °C, 2 h
IC50 strictly less than 7 µM = satisfied. Otherwise not satisfied.

- N=C(N)NCc1cccc(I)c1 [MIBG, meta-iodobenzylguanidine]: satisfied
- N=C(N)NCc1cccc(F)c1 [[^18F]MFBG] [meta-[^18F]fluorobenzylguanidine]: satisfied
- N=C(N)NCc1cccc(F)c1 [MFBG]: satisfied
- N=C(N)NCc1ccc(F)cc1 [[^18F]PFBG, para-[^18F]fluorobenzylguanidine]: not satisfied
- NC(N)=NCc1ccc(F)cc1 [PFBG]: not satisfied

Just for reference, paper PMC3947152 is where these values come from.
